- Test system: WaGa
- Procedure Details: qHTS assay to identify novel small-molecules to repurpose for Merkel cell carcinoma treatment (AID 1296009); further: nearly all actives have a fitted effect of over 60% in size
- Experimental Parameters: MCC and control cell lines, CellTiter-Glo viability, 72 h; series mostly up to 46 µM
- Text: MCC is a rare and aggressive neuroendocrine skin cancer with limited treatment options. Approximately 80% of MCCs have the Merkel cell polyomavirus (MCPyV) DNA integrated into the host genome (virus-positive: VP-MCC) and viral oncogenes drive oncogenesis. The remaining MCCs are virus-negative (VN-MCC) and are caused by UV mutagenesis. […] Using cell viability as a readout (CellTiter-Glo assay) we found both overlapping and distinct drugs that can be repurposed for the treatment of VP-MCC and VN-MCC. […]
Inconclusive results are not listed. Activity calls are given as the source filed them. The call rests on the fitted dose curve; in most records, active means well fitted inhibition curve with a large enough effect; inconclusive means small, poorly fitted or top-dose-only effect; inactive means flat fitted curve, though single readings scatter.
Use one of these outcomes when replying: Y for active, N for inactive

CN(C)c1ccc(C(=O)NCCCCCCC(=O)NO)cc1 Y
O=C(O)[C@H](CC(=O)N1C[C@@H]2CCCC[C@H]2C1)Cc1ccccc1 N

Problem: Which outcome did this test record for the compound `CCOC(=O)N1CCN([N+]([O-])=NOc2ccc([N+](=O)[O-])cc2[N+](=O)[O-])CC1` ?
Result: Y
